Reference source for all entries: ChEMBL document CHEMBL1130203

- Experimental Details: Half-life in Rats was determined after Peroral administration
- Type: ADME, organism-based
- Measurement Context: rat, in vivo, po
Readout Type: half-life (min)
State the answer as a number, implicitly in min.

NCC1CCN(c2nc3c(cc2F)c(=O)c(C(=O)O)cn3C2CC2)C1 (configuration not stated): 132

Proceeding to the next compound to report its half-life.
Prompt: Requested read-out: half-life. Entry: CO/N=C1\CN(c2nc3c(cc2F)c(=O)c(C(=O)O)cn3C2CC2)CC1CN (stereo in doubt; 20)
Response: 140

* * *

- Experimental Details: Tmax was determined in Rats after Peroral administration
- Format: ADME, organism-based
- Measurement Context: rat, in vivo, po
Readout Type: Tmax (min)
State the answer as a number, implicitly in min.

CO/N=C1\CN(c2nc3c(cc2F)c(=O)c(C(=O)O)cn3C2CC2)CC1CN (stereo in doubt; 20) [GEMIFLOXACIN]: 19.8

Proceeding to the next molecule to report its Tmax.
Prompt: Requested read-out: Tmax. Entry: NCC1CCN(c2nc3c(cc2F)c(=O)c(C(=O)O)cn3C2CC2)C1 (configuration not stated)
Response: 10.2

* * *

- System: Acinetobacter calcoaceticus
- Experimental Details: Minimum inhibitory concentration (MIC) against Acinetobacter calcoaceticus 15473
- Assay type: functional
- Measurement Context: Acinetobacter calcoaceticus; read-out: MIC
molecules and their reported MIC
State the answer as a number, implicitly in µg/mL.

CO/N=C1\CN(c2nc3c(cc2F)c(=O)c(C(=O)O)cn3-c2ccc(F)cc2F)CC1CN (stereo not given): 0.13
NCC1CN(c2nc3c(cc2F)c(=O)c(C(=O)O)cn3C2CC2)C/C1=N\O (stereo not given): 0.13
CO/N=C1\CN(c2nc3c(cc2F)c(=O)c(C(=O)O)cn3C2CC2)CC1CN(C)C (stereo not given): 0.5
NCC1CCN(c2nc3c(cc2F)c(=O)c(C(=O)O)cn3C2CC2)C1 (stereo not given): 0.13

Prompt: Requested read-out: MIC. Entry: CNCC1CN(c2nc3c(cc2F)c(=O)c(C(=O)O)cn3C2CC2)C/C1=N\OC (stereo not given)
Response: 1

* * *

- Experimental Details: Half-life in Dogs was determined after Peroral administration
- Assay type: ADME, organism-based, Canis lupus familiaris
- Measurement Context: dog, in vivo, po
Readout Type: half-life (h)
State the answer as a number, implicitly in h.

Prompt: Requested read-out: half-life. Entry: CO/N=C1\CN(c2nc3c(cc2F)c(=O)c(C(=O)O)cn3C2CC2)CC1CN (stereo in doubt; 20)
Response: 5.12

* * *

- System: Staphylococcus aureus
- Experimental Details: Minimum inhibitory concentration (MIC) against Staphylococcus aureus 241
- Type: functional
- Measurement Context: Staphylococcus aureus; read-out: MIC
compounds and their reported MIC
State the answer as a number, implicitly in µg/mL.

Reference set (4 entries):
CO/N=C1\CN(c2nc3c(cc2F)c(=O)c(C(=O)O)cn3C2CC2)CC1CN (stereo in doubt): 4
CO/N=C1\CN(c2cc3c(cc2F)c(=O)c(C(=O)O)cn3C2CC2)CC1CN (stereo not given): 4
CO/N=C1\CN(c2c(F)c(N)c3c(=O)c(C(=O)O)cn(C4CC4)c3c2F)CC1CN (stereo not given): 0.25
CNCC1CN(c2nc3c(cc2F)c(=O)c(C(=O)O)cn3C2CC2)C/C1=N\OC (stereo not given): 128

Proceeding to the next compound to report its MIC.
Prompt: Lab request: please report MIC under test system Staphylococcus aureus for CCO/N=C1\CN(c2nc3c(cc2F)c(=O)c(C(=O)O)cn3C2CC2)CC1CN (stereo not given)
Response: 2
